B1: mRNA-splicing (parent)
chain: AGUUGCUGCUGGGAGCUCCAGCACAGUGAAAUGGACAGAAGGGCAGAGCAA

Variants of: B1
Assay: exon inclusion enrichment index; higher = more inclusion; WT1 exon 5 minigene, HEK293
recorded-endpoint: exon inclusion enrichment index

>>> df
                               var  endpoint_value
 0  G5C C6A U7C G8A U10A G26C U27C            0.54
 1      C6A U7A C9A U10A C24A A25U           0.754
 2      C6A U7C C9A U10C A29G A30U            1.72
 3       G5A C6G U7G C9A G38A A39C          0.0024
 4  G5C C6U G8C C9U U10C G34U A35C           0.683
 5           G5U G8U C9U A40C G41C           0.711
 6         G2A U3C G5A C6G U7G C9A          0.0183
 7         G2U U3C G5A C6G U7G C9A          0.0791
 8      G5C C6G U7C U10C A25C G26A            4.67
 9                       C19U A20C            1.96
10       G5A C6G U7G C9A G42C G43C          0.0141
11      C6A U7A C9A U10A A47G G48U          0.0862
12           G5U G8U C9U G43C C44A           0.722
13           G5C C6G U7C U10C C24G            4.23
14                            G21U            1.52
15           G5U G8U C9U A40G G41C            0.76
16  G5C C6U G8C C9U U10C G21C C22A            1.71
17                         U7A G8C            1.67
18           G5A U7C G8A U10C C44G            3.26
19        U4A G5A C6A U7C G8A U10A          0.0681
20           G5A U7C G8A U10C A23G            3.56
21       G5A C6G U7G C9A A25U G26A         0.00161

Sourced from the RNAGym collection of RNA variant scans (doi:10.1101/gr.219683.116)
